target: Transthyretin (Homo sapiens, UniProt P02766); test: Inhibition of TTR mediated fibrillogenesis assessed as acid-induced protein aggregation turbidity after 1.5 hrs by turbidimetric assay relative to control; design: concentration or dose not given beside the values
readout kind: Activity

**Query** So what does the record say about Activity for O=C1Nc2ccccc2/C1=N/c1ccc([N+](=O)[O-])cc1 ?
**Result** 90%

**Query** So what does the record say about Activity for O=C1Nc2ccccc2/C1=N/c1ccc(I)cc1 ?
**Result** 0%

---
**Query** So what does the record say about Activity for Cc1ccc(/N=C2\C(=O)N(C)c3ccccc32)cc1 ?
**Result** 8.6%

**Query** So what does the record say about Activity for N[C@@H](Cc1cc(I)c(Oc2cc(I)c(O)c(I)c2)c(I)c1)C(=O)O ?
**Result** 95%

**Query** So what does the record say about Activity for COc1ccc(/N=C2\C(=O)N(C)c3ccccc32)cc1 ?
**Result** 81%

**Query** So what does the record say about Activity for COc1ccc(/N=C2\C(=O)Nc3ccc([N+](=O)[O-])cc32)cc1 ?
**Result** 24%

**Query** So what does the record say about Activity for Oc1c(I)cc(I)cc1I ?
**Result** 80%

Data credit: ChEMBL document CHEMBL1155353
